# TEST_PROTOCOL: Solubility in solvents / water-solubility
# Format: physicochemical
# CONDITION_DESCRIPTION: water

SMILES_STR	solubility
C[C@@H]1O[C@@H](OC[C@H]2O[C@@H](Oc3c(-c4ccc(O)c(O)c4)oc4cc(O)cc(O)c4c3=O)[C@H](O)[C@@H](O)[C@@H]2O[C@H]2O[C@H](CO)[C@@H](O)[C@H](O)[C@H]2O)[C@H](O)[C@H](O)[C@H]1O	~4300 mg/mL
